// provenance: patent US20210380703A1

Let's look at some binders and their measured optical density.
- experimentalTarget: human Fc (human)
- protocolSummary: ELISA; negative control
Give your result in OD as a bare value.

binder: 374_F11 (antibody, V domains shown) VH: EVQLLESGGGLVQPGGSLRLSCAASGFTFDSYSMNWVRQAPGKGLEWVSNINYNGGYTGYADSVKGRFTISRDNSKNTLYLQMNSLRAEDTAVYYCARSANWHDTALDYWGQGTLVTVSS VL: DIQMTQSPSSLSASVGDRVTITCRASQSILSYLNWYQQKPGKAPKLLIYAVTSLASGVPSRFSGSGSGTDFTLTISSLQPEDFATYYCQQSYESPLTFGGGTKVEIK
unit: OD
optical density: 0.191
--
binder: 375_E01 (antibody, V domains shown) VH: EVQLLESGGGLVQPGGSLRLSCAASGFTFSSYSMNWVRQAPGKGLEWVSGINYNSGYKSYADSVKGRFTISRDNSKNTLYLQMNSLRAEDTAVYYCARSANWHDTALDYWGQGTLVTVSS VL: DIQMTQSPSSLSASVGDRVTITCRASQSILTYLNWYQQKPGKAPKLVIYAATSRASGVPSRFSGSGSGTDFTLTISSLQPEDFATYYCQQSDDSPLTFGGGTKVEIK
unit: OD
optical density: 0.164

Any idea what its optical density is? The binder is 376_A06 (antibody, V domains shown) VH: EVQLLESGGGLVQPGGSLRLSCAASGFTFDSYSMNWVRQAPGKGLEWVSGINYNSGYTSYADSVKGRFTISRDNSKNTLYLQMNSLRAEDTAVYYCARSATWHDTALDYWGQGTLVTVSS VL: DIQMTQSPSSLSASVGDRVTITCRASQSILSYLNWYQQKPGKAPKLVIYYVSNRASGVPSRFSGSGSGTDFTLTISSLQPEDFATYYCQQSYDNPLTFGGGTKVEIK 0.262
